- Experimental protocol: Growth inhibition of human LOXIMVI cells after 48 hrs by SRB assay
- Format: functional
- Condition set: LOX IMVI
Listed next: entries and their corresponding GI50.

Example compounds with recorded GI50:
COc1ccc(C(=O)N2c3ccccc3Sc3ccccc32)c(OC)c1: 0.601 µM
COc1ccc(C(=O)N2c3ccccc3Sc3ccccc32)cc1F: 0.672 µM
COc1ccc(C(=O)N2c3ccccc3Sc3ccccc32)c(F)c1: 0.727 µM

# next compound below
Query :: Which measured GI50 value corresponds to COc1ccc(C(=O)N2c3ccccc3Sc3ccccc32)c(C(F)(F)F)c1 ?
Result :: 0.516 µM

###

- Experimental protocol: Growth inhibition of human MOLT4 cells at 10 uM after 48 hrs by SRB assay relative to control
- Assay type: functional
- Condition set: MOLT-4, 48 h, read-out: GI
Respond with T for inhibition of growth at 10 µM values of 70% and above, F for values below.

COc1ccc(C(=O)N2c3ccccc3Sc3ccccc32)c(F)c1: T
COc1ccc(C(=O)N2c3ccccc3Sc3ccccc32)c(C(F)(F)F)c1: T
O=C(c1ccc(F)c(Cl)c1)N1c2ccccc2Sc2ccccc21: F
COc1ccc(C(=O)c2ccc3c(c2)Sc2cc(C(=O)c4ccc(OC)c(F)c4)ccc2N3C)cc1F: F
O/N=C(/c1ccc2c(c1)Sc1ccccc1N2)c1c[nH]c2ccccc12: T

Query :: Does O=C(c1ccc2c(c1)Sc1ccccc1N2)c1c[nH]c2ccccc12 have a reported inhibition of growth at 10 µM of at least 70%?
Result :: T

Query :: Please tell me: is the compound COc1ccc(C(=O)N2c3ccccc3Sc3ccccc32)cc1F at or over 70% in terms of inhibition of growth at 10 µM?
Result :: F

Query :: Check if inhibition of growth at 10 µM >= 70% (inclusive). Item: O=C(c1ccc(Cl)cc1Cl)N1c2ccccc2Sc2ccccc21
Result :: T

Query :: Is the recorded value of inhibition of growth at 10 µM equal to or greater than 70% for this compound? COc1ccc(C(=O)N2c3ccccc3Sc3ccccc32)c(OC)c1
Result :: T

Query :: Textbook exercise: given the entry COc1ccc(C(=O)c2ccc3c(c2)Sc2ccccc2N3C)cc1F , state whether its inhibition of growth at 10 µM is greater than or equal to 70%.
Result :: F

src = ChEMBL document CHEMBL3792297
